- Test system: HL-60(TB) leukemia
- ASSAY EXPLANATION: NCI-60 one-dose screen, 48 h
- EXPERIMENTAL CONTEXT: 10 µM unless noted
This is part of a sample that, as a whole, favours compounds with a hit. Of some 83,000 tested, about 20% had one in any assay. Calls of active or inactive are those of the source. How the source made its calls: active means growth percent below 10; inactive means the rest.
# valid calls are T (active), F (inactive); nothing else

Below are worked cases with known answers.
Cc1c(C(=O)OCCCCOC(=O)c2c(C)n(C)c3scc[n+]23)[n+]2ccsc2n1C
F
C/C(=N\NC(=S)N1CCCCC1)c1ccccn1
T

Ask: // return assay outcome for COc1ccc(/C=C\c2cc(OC)c(OC)c(OC)c2)cc1OCC(=O)Nc1ccc2nc(C)sc2c1
Result: T

====

- Tested on: T-47D breast
- ASSAY EXPLANATION: NCI-60 one-dose screen, 48 h
- EXPERIMENTAL CONTEXT: 10 µM unless noted
The panel holds about 83,000 compounds, 20% with a hit somewhere; the sample as a whole holds those more often. The source made the active and inactive calls. How the source made its calls: active means growth percent below 10; inactive means the rest.
Return exactly one item of label 1 = active, label 0 = inactive

CC(C)(C)NCC(O)c1ccccc1Cl (configuration not stated)
label 0
CC(=O)[O][Hg][c]1nc2c(c(=O)n(C)c(=O)n2C)n1C
label 0
O=C(O)CNC(=O)c1ccccc1
label 0

Ask: // return assay outcome for CC(=O)[O][Hg][CH2]C1(C)COC(C)([CH2][Hg][O]C(C)=O)CO1 (configuration not stated)
Result: label 1

Ask: Called result for Nc1cccc(CC(=O)Nc2ccc(S(=O)(=O)F)cc2)c1
Result: label 0

====

- Test system: HL-60(TB) leukemia
- ASSAY EXPLANATION: NCI-60 one-dose screen, 48 h (100 = growth as untreated, 0 = no growth, -100 = all killed)
- EXPERIMENTAL CONTEXT: 10 µM unless noted
The panel holds about 83,000 compounds, 20% with a hit somewhere; the sample as a whole holds those more often. Calls of active or inactive are those of the source. Rule for the calls: active = growth percent below 10; inactive = the rest.
MEASUREMENT LABEL: growth

COC(=O)c1ccc(NC(N)=NCC(C)(C)COc2ccc(C(F)(F)F)cc2)nc1
-49% (active)
CCCS(=O)(=O)Nc1ccc(F)c(C(=O)c2c[nH]c3ncc(-c4ccc(Cl)cc4)cc23)c1F
30.7% (inactive)
CC(C)(N)COS(=O)(=O)O
94.4% (inactive)
COC1CC2CCC(C)C(O)(O2)C(=O)C(=O)N2CCCCC2C(=O)OC(C(C)CC2CCC(O)C(OC)C2)CC(=O)C(C)C=C(C)C(O)C(OC)C(=O)C(C)CC(C)/C=C/C=C/C=C1C (stereo not given)
86.6% (inactive)

Okay, now this compound:
Ask: Name the reported growth value associated with the compound O=c1oc2ccccc2cc1-c1csc(N=Nc2c(O)[nH]c3ccc(Br)cc23)n1
Result: 106% (inactive)

====

growth by entry:
- Tested on: NCI-H460 lung
- ASSAY EXPLANATION: NCI-60 one-dose screen, 48 h (100 = growth as untreated, 0 = no growth, -100 = all killed)
- EXPERIMENTAL CONTEXT: 10 µM unless noted
This is part of a sample that, as a whole, favours compounds with a hit. Of some 83,000 tested, about 20% had one in any assay.
Write it as a number; the unit % goes unstated.

Ask: Can you look up the measured growth of ClCCN(CCCl)c1nc(Cl)c(C2CC(c3ccc(Cl)cc3)=NN2c2cc(Cl)cc(Cl)c2)s1 (stereo not given) for me?
Result: 101

Ask: Please give the measured growth for this compound: CC1(C)CC2(CC(C)(C)c3cc(O)c(O)cc32)c2cc(O)c(O)cc21
Result: 97.7

Ask: Please give the measured growth for this compound: O=C(CCl)NCNC(=O)CCl
Result: 103

Ask: Consider the compound O=[N+]([O-])c1cccc([As]=[As]c2cccc([N+](=O)[O-])c2)c1 (stereo not given) and give its measured growth.
Result: -65.7

Ask: Which measured growth value corresponds to Nc1c(Br)cc2c3c(cccc13)-c1ccccc1-2 ?
Result: 88.4
